# Test system: B16F10 melanoma cells
# EXPERIMENT_NOTES: MTT assay, cytotoxicity of hypomethylating agents
# Format: cell-based
# DETAILS: Mus musculus, B16-F10, 72 h, read-out: IC50 against B16F10 melanoma cells
ASSAY_METRIC: IC50 (nM)
One number for each entry, in nM.

Quick check: IC50 on B16F10 melanoma cells, item Nc1ncn([C@H]2C[C@H](O)[C@@H](CO)O2)c(=O)n1 ? 2550
